Source of measurements: the supplement of paper PMC10724198

system: Saccharomyces cerevisiae; assay: protein stability index of tFT-peptide fusion (C-terminal peptide) (PSI (0-1 scale)); higher = more stable (slower turnover); details: genetic background: wild type; temperature: 30 C;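 also: PSI is a weighted mean of sequencing reads over stability bins, variants kept only with over 10 reads, mCherry proximal and sfGFP distal, peptide attached via GGGS linker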
Each item that follows carries a reported protein stability index.

SVPTSLCYSFSP | 0.596

Bench note, Saccharomyces cerevisiae: entry LLHPLPPPSYPP , its protein stability index = 0.689

Observed protein stability index, Saccharomyces cerevisiae, EFALVFVRARRA : 0.586

Tested system Saccharomyces cerevisiae; protein stability index recorded for SPEVIHVVFCDL was 0.697

// sequence FSPLARMGSGTL , assay Saccharomyces cerevisiae, protein stability index value: 0.701

Short answer on Saccharomyces cerevisiae for APPPRPLKLFPP , protein stability index: 0.611

Hey, Saccharomyces cerevisiae data for FDSYVNHRLNRD : protein stability index came out at 0.608

* * *

test system: Saccharomyces cerevisiae; test: protein stability index of tFT-peptide fusion (C-terminal peptide) (PSI (0-1 scale)); higher = more stable (slower turnover); details: genetic background: cdc53-1; temperature: 37 C
measuredEndpoint: protein stability index
Output spec: single numeric token, no unit.

LVCLFFLSSLFF | 0.606
LPPHLPFPLSAA | 0.723
SLIFRVGKFKSL | 0.697
VVRSIVVYTCVF | 0.365
WLFTSVTVFTFL | 0.299
DISWVFVLLIFF | 0.402

Lab entry: Saccharomyces cerevisiae assay, sequence HSAIFLFFFFFG , protein stability index = 0.455

Case VHNIDLFVVCYI , Saccharomyces cerevisiae, protein stability index recorded as 0.443

Measured protein stability index for this entry LPPHSASLSSSF on Saccharomyces cerevisiae: 0.759

GET /values?item= FGCCLYFCFWGL &system= Saccharomyces cerevisiae returns protein stability index: 0.519

Field protein stability index (Saccharomyces cerevisiae), entry HILRLVYFIVYE : 0.533

Measured protein stability index for this entry CSLRLCVRGAIV on Saccharomyces cerevisiae: 0.702

// returns protein stability index for KLRELQVRQQLS with Saccharomyces cerevisiae; value = 0.677

Field protein stability index (Saccharomyces cerevisiae), entry LLMLWWARVFSG : 0.395

* * *

system: Saccharomyces cerevisiae; assay: protein stability index of tFT-peptide fusion (C-terminal peptide) (PSI (0-1 scale)); higher = more stable (slower turnover); settings: genetic background: wild type; temperature: 30 C
protein stability index overview

RHDMTSGCVSHS | 0.703
PFPPPTPPPPLP | 0.751
LVGICERRHVHC | 0.638
GCLCWVLSGRGA | 0.68
RFPFGPAPPPTP | 0.744
FLLVCLNDVLRP | 0.588

Recorded result, ALPPPRPPPPSP , protein stability index: 0.692

Record PRGRSRPRCVIR . Reported protein stability index: 0.684

Note to self: protein stability index recorded for PIPPPAPPPAPP was 0.678

Entry FGYGLPFPERVE — recorded protein stability index = 0.781

Entry NHRETNRNRGKL ; protein stability index = 0.753

Measured protein stability index of LFPRCPPPPLTT : 0.653

* * *

system: Saccharomyces cerevisiae; experiment: protein stability index of tFT-peptide fusion (C-terminal peptide) (PSI (0-1 scale)); higher = more stable (slower turnover); conditions: genetic background: wild type; temperature: 30 C
measuredEndpoint: protein stability index
Number only, no unit.

Reference set, count: 3
GGGGCVMGVGRV | 0.668
VALPPSHLSAFL | 0.689
PPTPRALFPPLP | 0.745

Continue with the sequence presented below.
protein stability index in this record for RVCWLRAFGFLV : 0.305
